Test system: 13F2 (fetal-II hepatoblastoma organoid with high liver markers)
TEST DETAILS: area under the viability dose-response curve (AUC) (AUC (arbitrary units, max 500 = no viability loss)); higher = less sensitive (higher viability)
MEASUREMENT CONTEXT: exposure time: 120 h; concentration range: 0.1 nM - 10 µM, 6 doses
READOUT TYPE: area under the viability dose-response curve

> print(dat)
                                        smi  experimental.result
1                         CN(C)C(=N)NC(=N)N                > 500
2  c1cn2cc(-c3ccc4cn[nH]c4c3)nc(Nc3ccc(N4CCOCC4)cc3)c2n1                > 500
3  C[C@]12C=CC(=O)C=C1CC[C@@H]1[C@@H]2[C@@H](O)C[C@@]2(C)[C@H]1CC[C@]2(O)C(=O)CO                > 500
